Provenance of the data: ChEMBL document CHEMBL1909046

# system: Thromboxane-A synthase (Homo sapiens);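 further: enzyme inhibition assay with PGH2 supplied as substrate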; further: in other assays of this panel Not Active means under 50% inhibition at 10 µM
# Sequence (P24557 whole entry): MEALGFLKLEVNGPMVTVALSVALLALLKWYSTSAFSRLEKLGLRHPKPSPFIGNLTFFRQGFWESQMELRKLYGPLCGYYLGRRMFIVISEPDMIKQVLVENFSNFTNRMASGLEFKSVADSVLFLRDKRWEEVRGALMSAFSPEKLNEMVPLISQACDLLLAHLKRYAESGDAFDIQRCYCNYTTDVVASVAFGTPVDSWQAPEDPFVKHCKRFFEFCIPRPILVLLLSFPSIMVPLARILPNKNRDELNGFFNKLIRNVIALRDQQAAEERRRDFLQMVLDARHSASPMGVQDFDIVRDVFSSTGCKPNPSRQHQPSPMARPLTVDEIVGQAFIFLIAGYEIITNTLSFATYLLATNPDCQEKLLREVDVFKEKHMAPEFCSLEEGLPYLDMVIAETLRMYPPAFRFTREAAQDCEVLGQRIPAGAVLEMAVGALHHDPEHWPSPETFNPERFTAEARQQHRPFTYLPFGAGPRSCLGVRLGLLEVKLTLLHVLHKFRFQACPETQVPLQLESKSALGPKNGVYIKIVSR
# experiment_notes: biochemical
# Type: tissue-based, Platelet
# measurement_setup: read-out: IC50
quantity_name: IC50
Put your answer as a value accompanied by its unit after it.

Previously resolved entries follow.
- molecule: "O=C(Nc1ccc(Cl)c(Cl)c1)c1cc(Cl)cc(Cl)c1O [3,3',4',5-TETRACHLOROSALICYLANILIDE]"
  result: "4.93 µM"
- molecule: "CN(CCOc1ccc(C[C@H](Nc2ccccc2C(=O)c2ccccc2)C(=O)O)cc1)c1ccccn1"
  result: "2.95 µM"
- molecule: "O=C(O)c1cc(/N=N/c2ccc(S(=O)(=O)Nc3ccccn3)cc2)ccc1O"
  result: "19.6 µM"
- molecule: "c1ccc(Cn2ccnc2)cc1"
  result: "0.602 µM"
- molecule: "CCOC(=O)C1=C(C)NC(C)=C(C(=O)OCC)C1c1ccccc1/C=C/C(=O)OC(C)(C)C"
  result: "1.69 µM"

**Q:** Value wanted: IC50 (Thromboxane-A synthase (Homo sapiens)) of entry `O=C(OC[C@H]1O[C@@H](OC(=O)c2cc(O)c(O)c(OC(=O)c3cc(O)c(O)c(O)c3)c2)[C@H](OC(=O)c2cc(O)c(O)c(OC(=O)c3cc(O)c(O)c(O)c3)c2)[C@@H](OC(=O)c2cc(O)c(O)c(OC(=O)c3cc(O)c(O)c(O)c3)c2)[C@@H]1OC(=O)c1cc(O)c(O)c(OC(=O)c2cc(O)c(O)c(O)c2)c1)c1cc(O)c(O)c(OC(=O)c2cc(O)c(O)c(O)c2)c1`
**A:** 0.325 µM

====

# system: Histamine H2 receptor (Homo sapiens, UniProt P25021); further: in other assays of this panel Not Active means under 50% inhibition at 10 µM
# Sequence (P25021 whole entry): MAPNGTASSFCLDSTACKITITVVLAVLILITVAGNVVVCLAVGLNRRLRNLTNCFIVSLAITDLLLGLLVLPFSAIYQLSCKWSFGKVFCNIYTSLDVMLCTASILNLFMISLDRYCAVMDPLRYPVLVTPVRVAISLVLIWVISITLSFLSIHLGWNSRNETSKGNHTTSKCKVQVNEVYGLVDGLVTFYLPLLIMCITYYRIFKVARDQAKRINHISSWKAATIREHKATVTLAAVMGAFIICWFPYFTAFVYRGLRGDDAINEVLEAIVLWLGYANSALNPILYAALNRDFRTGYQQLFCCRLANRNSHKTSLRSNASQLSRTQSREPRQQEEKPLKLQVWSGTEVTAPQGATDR
# Format: cell membranes, CHO-K1, Membrane
# measurement_setup: cho-k1

- smiles_notation: "CC[C@@]1(O)C(=O)OCc2c1cc1n(c2=O)Cc2cc3c(CN(C)C)c(O)ccc3nc2-1"
  system: "Histamine H2 receptor (Homo sapiens, UniProt P25021)"
  IC50: "Not Active"
- smiles_notation: "CO[C@@H]1[C@@H](OC)[C@H](C)[C@@](O)(CC(=O)O)O[C@H]1[C@H](C)[C@H]1O[C@@]2(CC[C@@](C)([C@H]3CC[C@@](C)([C@@H]4O[C@@H]([C@H]5O[C@](C)(O)[C@H](C)C[C@@H]5C)C[C@@H]4O[C@@H]4C[C@H](OC)[C@@H](OC)[C@H](C)O4)O3)O2)C[C@H](O)[C@H]1C.N"
  system: "Histamine H2 receptor (Homo sapiens, UniProt P25021)"
  IC50: "Not Active"

====

# system: Cytochrome P450 2E1 (Homo sapiens); further: in other assays of this panel Not Active means under 50% inhibition at 10 µM
# Sequence (P05181 whole entry): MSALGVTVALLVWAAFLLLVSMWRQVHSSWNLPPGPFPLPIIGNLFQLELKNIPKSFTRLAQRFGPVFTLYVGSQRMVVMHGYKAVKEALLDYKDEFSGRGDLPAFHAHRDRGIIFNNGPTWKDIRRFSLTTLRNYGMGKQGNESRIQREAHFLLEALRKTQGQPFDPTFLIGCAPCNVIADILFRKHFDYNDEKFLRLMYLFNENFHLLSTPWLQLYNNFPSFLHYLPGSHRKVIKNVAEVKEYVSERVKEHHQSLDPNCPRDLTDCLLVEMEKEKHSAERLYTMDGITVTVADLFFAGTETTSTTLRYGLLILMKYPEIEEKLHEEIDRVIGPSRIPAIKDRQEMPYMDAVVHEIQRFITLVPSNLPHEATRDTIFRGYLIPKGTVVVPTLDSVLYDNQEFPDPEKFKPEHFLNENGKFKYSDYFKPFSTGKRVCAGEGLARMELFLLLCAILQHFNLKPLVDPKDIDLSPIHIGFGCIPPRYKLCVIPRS
# measurement_setup: bti-tn-5b1-4
quantity_name: Ki

Examples with answers:
- compound: "C=CCc1ccc2c(c1)OCO2"
  system: "Cytochrome P450 2E1 (Homo sapiens)"
  Ki: "Not Active"
- compound: "c1ccc(Cn2ccnc2)cc1"
  system: "Cytochrome P450 2E1 (Homo sapiens)"
  Ki: "Not Active"
- compound: "CC12CCC(CC1)C(C)(C)O2"
  system: "Cytochrome P450 2E1 (Homo sapiens)"
  Ki: "Not Active"
- compound: "NC(=O)CN1CCCC1=O"
  system: "Cytochrome P450 2E1 (Homo sapiens)"
  Ki: "Not Active"
- compound: "C[C@H]1C[C@H]2[C@@H]3CCC4=CC(=O)C=C[C@]4(C)[C@@]3(F)[C@@H](O)C[C@]2(C)[C@@]1(O)C(=O)CO"
  system: "Cytochrome P450 2E1 (Homo sapiens)"
  Ki: "Not Active"
- compound: "CS(=O)(=O)c1ccc(C2=C(c3ccccc3)C(=O)OC2)cc1"
  system: "Cytochrome P450 2E1 (Homo sapiens)"
  Ki: "Not Active"
- compound: "CC(CN1c2ccccc2Sc2ccccc21)N(C)C (stereo not given)"
  system: "Cytochrome P450 2E1 (Homo sapiens)"
  Ki: "Not Active"
- compound: "CCN1CCN(C(=O)N[C@@H](C(=O)N[C@@H]2C(=O)N3[C@@H]2SC(C)(C)[C@@H]3C(=O)O)c2ccccc2)C(=O)C1=O"
  system: "Cytochrome P450 2E1 (Homo sapiens)"
  Ki: "Not Active"
- compound: "C=CCO"
  system: "Cytochrome P450 2E1 (Homo sapiens)"
  Ki: "Not Active"

**Q:** Please provide the recorded Ki for `CC1=C(/C=C/C(C)=C/C=C/C(C)=C/C(=O)O)C(C)(C)CCC1` , tested on Cytochrome P450 2E1 (Homo sapiens). Further: in other assays of this panel Not Active means under 50% inhibition at 10 µM.
**A:** Not Active

====

# experiment_notes: DRUGMATRIX: Nicotinic Acetylcholine radioligand binding (ligand: [125I] Epibatidine)
# Type: cell membranes, Membrane
# measurement_setup: imr-32; Not Active = under 50% inhibition at 10 µM
quantity_name: Ki

- compound: "C#C[C@]1(O)CC[C@H]2[C@@H]3[C@H](C)CC4=C(CCC(=O)C4)[C@H]3CC[C@@]21C [TIBOLONE]"
  quantity_name: "Ki"
  result: "Not Active"
- compound: "OC[C@H]1O[C@@H]2O[C@H]3[C@H](O)[C@@H](O)[C@@H](O[C@H]4[C@H](O)[C@@H](O)[C@@H](O[C@H]5[C@H](O)[C@@H](O)[C@@H](O[C@H]6[C@H](O)[C@@H](O)[C@@H](O[C@H]7[C@H](O)[C@@H](O)[C@@H](O[C@H]8[C@H](O)[C@@H](O)[C@@H](O[C@H]1[C@H](O)[C@H]2O)O[C@@H]8CO)O[C@@H]7CO)O[C@@H]6CO)O[C@@H]5CO)O[C@@H]4CO)O[C@@H]3CO [BETADEX]"
  quantity_name: "Ki"
  result: "Not Active"
- compound: "O=C(O)CO [GLYCOLIC ACID]"
  quantity_name: "Ki"
  result: "Not Active"
- compound: "NS(=O)(=O)c1cc(C(=O)O)c(NCc2ccco2)cc1Cl [FUROSEMIDE]"
  quantity_name: "Ki"
  result: "Not Active"

====

# system: 5-hydroxytryptamine receptor 1A (Rattus norvegicus, UniProt P19327); further: in other assays of this panel Not Active means under 50% inhibition at 10 µM
# Sequence (P19327 whole entry): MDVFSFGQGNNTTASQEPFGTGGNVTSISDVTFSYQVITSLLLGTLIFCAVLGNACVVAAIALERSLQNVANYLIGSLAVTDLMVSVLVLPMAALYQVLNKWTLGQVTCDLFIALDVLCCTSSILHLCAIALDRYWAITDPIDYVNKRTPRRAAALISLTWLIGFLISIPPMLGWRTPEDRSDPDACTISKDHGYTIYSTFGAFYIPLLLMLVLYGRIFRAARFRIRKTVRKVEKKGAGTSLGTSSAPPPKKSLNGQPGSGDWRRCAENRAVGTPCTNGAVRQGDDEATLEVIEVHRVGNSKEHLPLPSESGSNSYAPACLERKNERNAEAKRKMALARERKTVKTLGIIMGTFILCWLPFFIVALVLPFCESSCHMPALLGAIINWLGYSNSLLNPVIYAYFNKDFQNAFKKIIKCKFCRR
# Format: cell membranes, CHO-K1, Membrane
# measurement_setup: cho-k1
quantity_name: IC50

- compound: "OC[C@H]1O[C@@H]2O[C@H]3[C@H](O)[C@@H](O)[C@@H](O[C@H]4[C@H](O)[C@@H](O)[C@@H](O[C@H]5[C@H](O)[C@@H](O)[C@@H](O[C@H]6[C@H](O)[C@@H](O)[C@@H](O[C@H]7[C@H](O)[C@@H](O)[C@@H](O[C@H]1[C@H](O)[C@H]2O)O[C@@H]7CO)O[C@@H]6CO)O[C@@H]5CO)O[C@@H]4CO)O[C@@H]3CO [ALFADEX]"
  quantity_name: "IC50"
  result: "Not Active"
- compound: "C#C[C@]1(O)CC[C@H]2[C@@H]3[C@H](C)CC4=C(CCC(=O)C4)[C@H]3CC[C@@]21C [TIBOLONE]"
  quantity_name: "IC50"
  result: "Not Active"
- compound: "CCOC(=O)C1=C(C)NC(C)=C(C(=O)OCC)C1c1ccccc1/C=C/C(=O)OC(C)(C)C [LACIDIPINE]"
  quantity_name: "IC50"
  result: "Not Active"

====

# experiment_notes: DRUGMATRIX: beta-Lactamase enzyme inhibition (substrate: Nitrocefin)
# Parameters: species or system Bacillus cereus
# measurement_setup: Not Active = under 50% inhibition at 10 µM
quantity_name: IC50

- molecule: "C[C@]12CC[C@@H](O)C[C@@H]1CC[C@@H]1[C@@H]2CC[C@]2(C)C(=O)CC[C@@H]12"
  quantity_name: "IC50"
  result: "Not Active"
- molecule: "COC(=O)C[C@](O)(CCC(C)(C)O)C(=O)O[C@@H]1C(OC)=C[C@]23CCCN2CCc2cc4c(cc2[C@H]13)OCO4"
  quantity_name: "IC50"
  result: "Not Active"
- molecule: "O=C(NCCN1CCOCC1)c1ccc(Cl)cc1 [MOCLOBEMIDE]"
  quantity_name: "IC50"
  result: "Not Active"
- molecule: "COC(=O)Nc1nc2ccc(C(=O)c3ccccc3)cc2[nH]1"
  quantity_name: "IC50"
  result: "Not Active"
- molecule: "CN(Cc1cc(Br)cc(Br)c1N)C1CCCCC1"
  quantity_name: "IC50"
  result: "Not Active"
- molecule: "CCN1C[C@]2(COC)[C@H](O)C[C@H](OC)[C@@]34[C@@H]5C[C@@]6(O)[C@H](OC(=O)c7ccccc7)[C@@H]5[C@@](OC(C)=O)([C@@H]([C@H](OC)[C@H]23)[C@@H]14)[C@@H](O)[C@@H]6OC"
  quantity_name: "IC50"
  result: "Not Active"
- molecule: "O=C(O)c1ccccc1"
  quantity_name: "IC50"
  result: "Not Active"
- molecule: "Cc1cccc(C)c1NC(=O)C(C)N (centres undefined) [TOCAINIDE]"
  quantity_name: "IC50"
  result: "Not Active"

The record that follows has no IC50 shown yet.
**Q:** Any idea what IC50 was measured for `C=CCc1ccc2c(c1)OCO2` ?
**A:** Not Active
